The measured values listed here are drawn from paper PMC7320011.

Catalogue of IC50 readings, one per entry.
# Tested on: noncancerous retinal pigment epithelium (RPE-1) cells
Please state the figure in µM; there is no need to write the unit.

- COc1ccc(/C=C/c2ccnc(-c3cc(/C=C/c4ccc(OC)cc4)ccn3)c2)cc1.F[P-](F)(F)(F)(F)F.F[P-](F)(F)(F)(F)F.[Ru+2].c1ccc(-c2ccccn2)nc1.c1ccc(-c2ccccn2)nc1: 3.1

Provide IC50, tested on noncancerous retinal pigment epithelium (RPE-1) cells, for CN(C)c1ccc(/C=C/c2ccnc(-c3cc(/C=C/c4ccc(N(C)C)cc4)ccn3)c2)cc1.CN(C)c1ccc(/C=C/c2ccnc(-c3cc(/C=C/c4ccc(N(C)C)cc4)ccn3)c2)cc1.F[P-](F)(F)(F)(F)F.F[P-](F)(F)(F)(F)F.[Ru+2].c1ccc(-c2ccccn2)nc1 . 10.9

State recorded IC50 with noncancerous retinal pigment epithelium (RPE-1) cells, entry C=CC1=C(C)c2cc3[nH]c(cc4nc(cc5[nH]c(cc1n2)c(C)c5CCC(=O)O)C(CCC(=O)O)=C4C)c(C)c3C=C [PpIX, Protoporphyrin IX, reference compound] , no comment. 3.8

Determine reported IC50 for COc1ccc(/C=C/c2ccnc(-c3cc(/C=C/c4ccc(OC)cc4)ccn3)c2)cc1.COc1ccc(/C=C/c2ccnc(-c3cc(/C=C/c4ccc(OC)cc4)ccn3)c2)cc1.COc1ccc(/C=C/c2ccnc(-c3cc(/C=C/c4ccc(OC)cc4)ccn3)c2)cc1.F[P-](F)(F)(F)(F)F.F[P-](F)(F)(F)(F)F.[Ru+2] ; test system: noncancerous retinal pigment epithelium (RPE-1) cells. 53.6
